- RUN DESCRIPTION: folding stability dG unfold (combined trypsin and chymotrypsin); higher = more stable
Output Fulfilled for folding stability dG unfold not less than 2 kcal/mol; output Not fulfilled otherwise.

{"columns": ["RESIDUE SEQUENCE", "LABEL CLASS"],
 "data": [
  ["SAGGSAGGSAGKYISVDELRKNGDPDEAERVVKKIMEKFPGPKIKPIEWDKDGNHMFKIKSAGGSAGGSAGG [r11_365_TrROS]", "Not fulfilled"],
  ["SAGGSAPVVVVVTPKNGKPIKLKFKFTKKEEAEAAVEEIKKALPKNTKVEAFYVDEEVVKEDKEYLSAGGSA [r15_469_TrMRF]", "Not fulfilled"],
  ["SAGGSKELKPGDIITFPKSVSEEEIKEKVKELMEKYGIKGIISIEKKSPNSYIVKIEYPDGNPLAISAGGSA [r2_168_JUSTAS]", "Not fulfilled"],
  ["SAGGSAGGSAGGMPELEKEGYKVEKFTIFEPDPLKPVGEVTVLTEVPKPKLLEGGSTSGLSAGGSAGGSAGG [r7_959_JUSTAS]", "Not fulfilled"],
  ["SAGGSAGGSMTIEEIKKLAEELGIEKVEIEKVKDGYYKIKIYNKKTGKKIEIIIKVNKDGKIVSAGGSAGGS [r12_170_TrROS_Hall]", "Fulfilled"],
  ["SAGGSAGGSAGKLKIKKVKVVKTETFTLPNGYTIKVSYVEVEVDGKKYLFKSVEIYPKKESAGGSAGGSAGG [r11_129_TrROS_Hall]", "Fulfilled"],
  ["SAGGMKTSPIGTFPLPDPSNGALADTVTIENPKEIIKKSNKEIVKVTVTTTAPDGTPTTTDEIIIIKNSAGG [r13_735_JUSTAS]", "Not fulfilled"],
  ["SAGGSAGGSDKFKIDNIYPDPDMWVYRIKFPKGKSHTFPIPEENIDEFAEDDGFNVEPLGPVPSAGGSAGGS [r12_676_TrROS]", "Not fulfilled"],
  ["SAGGSEVVLEAEGVDPATGKPYTVRVVYDKETGVPVVEVRDADGTLLAVIPVPPDKALEALKELGVSAGGSA [r2_115_TrMRF]", "Fulfilled"],
  ["SSISPSSTLTFSKPFPDDDINAVKEFAEKLAKEIGPDVSVVKIEKDPNNPNKVTITISVPGTSITVNFSNSA [r9_1079_JUSTAS]", "Not fulfilled"],
  ["SATLTFTATLPDGSRVLEVTAEPRPDGTVTIRMRAEFTFAPGVTVTVPATITVPVPPPPALPPDDPRLFSAG [r14_95_TrMRF]", "Fulfilled"],
  ["SAGGSAGGGMGPASFYIVTVDPNNPNVTKVESLSPSVDISLYRKKPFPIKTFSASNIEKLLKELSAGGSAGG [r6_864_JUSTAS]", "Not fulfilled"]
]}
